# Test system: HEK-293T
# assayProtocol: Multiplex assay against HEK293T
# Format: toxicity, cell-based
# statedConditions: human, 24 h, 1 µM, compound concentration 1 uM, replicate 1
assayMetric: Population Hoechst High Intensity Objects (%)
A number alone suffices; assume %.

Some solved entries appear below for comparison.
- compound: "CCn1c(=O)c(-c2ccc(-c3cncs3)cc2Cl)cc2cnc(Nc3ccc(N4CCN(C)CC4)cc3)nc21"
  testTarget: "HEK-293T"
  recordedMeasurement: 14
- compound: "CN[C@@H]1C[C@H]2O[C@@](C)([C@@H]1OC)n1c3ccccc3c3c4c(c5c6ccccc6n2c5c31)C(=O)NC4 [STAUROSPORINE]"
  testTarget: "HEK-293T"
  recordedMeasurement: 15
- compound: "CCN1CCN(Cc2ccc(Nc3ncc(F)c(-c4cc(F)c5nc(C)n(C(C)C)c5c4)n3)nc2)CC1.CS(=O)(=O)O"
  testTarget: "HEK-293T"
  recordedMeasurement: 18
- compound: "O=C1N/C(=N/c2ccccc2F)S/C1=C\\c1ccc(C(=O)O)cc1"
  testTarget: "HEK-293T"
  recordedMeasurement: 12
- compound: "CCN1CCN(c2ccc(Nc3cc(N(C)C(=O)Nc4c(Cl)c(OC)cc(OC)c4Cl)ncn3)cc2)CC1 [INFIGRATINIB]"
  testTarget: "HEK-293T"
  recordedMeasurement: 19

Name the recorded Population Hoechst High Intensity Objects (%) for CNC(=O)c1ccc(Nc2nc(OC3CCCC3)c3c(-c4ccc5nc(C)oc5c4)c[nH]c3n2)c(OC)c1 . 25

Name the recorded Population Hoechst High Intensity Objects (%) for COc1ccc(S(=O)(=O)N(CCO)c2ccccc2CN(C)C/C=C/c2ccc(Cl)cc2)cc1.O=P(O)(O)O . 18

Name the recorded Population Hoechst High Intensity Objects (%) for O=C(Cc1ccc(-c2ccc(OCCN3CCOCC3)cc2)cn1)NCc1ccccc1 [TIRBANIBULIN] . 14

Name the recorded Population Hoechst High Intensity Objects (%) for O=C(Nc1cccnn1)N1CCC(=Cc2cccc(Oc3ccc(C(F)(F)F)cn3)c2)CC1 . 15

Name the recorded Population Hoechst High Intensity Objects (%) for Cc1cn(-c2cc(NC(=O)c3ccc(C)c(Nc4nccc(-c5cccnc5)n4)c3)cc(C(F)(F)F)c2)cn1 [NILOTINIB] . 15
